Target: GSK3β (Homo sapiens, UniProt P49841)
Sequence (P49841 whole entry, species assumed): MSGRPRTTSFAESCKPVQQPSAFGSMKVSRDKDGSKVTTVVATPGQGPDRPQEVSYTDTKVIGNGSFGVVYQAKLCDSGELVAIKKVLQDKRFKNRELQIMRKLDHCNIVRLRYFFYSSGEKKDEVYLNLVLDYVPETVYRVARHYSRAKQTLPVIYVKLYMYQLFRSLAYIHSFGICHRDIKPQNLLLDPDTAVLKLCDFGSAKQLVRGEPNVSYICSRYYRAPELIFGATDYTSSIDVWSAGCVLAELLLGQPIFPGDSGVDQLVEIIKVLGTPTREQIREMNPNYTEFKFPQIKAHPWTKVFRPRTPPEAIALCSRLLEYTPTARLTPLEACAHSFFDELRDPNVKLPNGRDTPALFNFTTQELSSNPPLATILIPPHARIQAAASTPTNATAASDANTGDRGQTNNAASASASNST
Experiment: GSK3β kinase assay (Caliper LabChip3000 mobility shift, fluoresceinated peptide substrate)
Format: biochemical
Details: 250 pM enzyme, 20 uM ATP, 1.5 uM peptide, 20 hours room temperature; first value of cell GSK3β/GSK3α; read-out: GSK3β (nM), IC50
Give measured IC50 for each item. Keep answers brief.
Value expressed in nM; do not type the unit.

Notebook: O=C(Nc1cnccc1OCC(F)(F)F)c1ccnc(NCC2CC2)n1 [Example 118] , IC50 read as 0.3

Notebook: O=C(Nc1cnccc1-c1ccc(F)cc1)c1ccnc(NC2CC2)n1 [Example 153] , IC50 read as 0.82

Notebook: COc1ccc(Nc2nccc(C(=O)Nc3cncnc3Nc3ccc(OC)cc3)n2)cc1 [Example 78] , IC50 read as 28

Notebook: O=C(Nc1cnc(F)cc1N1CCOCC1)c1ccnc(NC2COC2)n1 [Example 175] , IC50 read as 46

Notebook: O=C(Nc1cncnc1)c1ccnc(N[C@H]2C[C@@H]2c2ccccc2)n1 [Example 202] , IC50 read as 120

Notebook: O=C(Nc1cncnc1Nc1ccccc1)c1ccnc(Nc2ccccc2)n1 [Example 75] , IC50 read as 48

Notebook: O=C(Nc1cnccc1OCC(F)(F)F)c1ccnc(NC2CCCCC2)n1 [Example 117] , IC50 read as 0.25

Notebook: O=C(Nc1cnccc1-c1ccc(F)cc1)c1ccnc(Nc2ccc(OC(F)(F)F)cc2)n1 [Example 48] , IC50 read as 1.5

Notebook: CC(C)Nc1nccc(C(=O)Nc2cnccc2OCC(F)(F)F)n1 [Example 120] , IC50 read as 0.44

Notebook: O=C(Nc1cnccc1-c1ccccc1)c1ccnc(Nc2ccc(F)cc2)n1 [Example 5] , IC50 read as 0.26

* * *

Target: GSK3α (Homo sapiens)
observation_type: pIC50
// field semantics: pIC50 = negative decimal log of concentration (mol/L)

Notebook: O=C(Nc1cnccc1-c1ccc(F)cc1)c1ccnc(NC2CC2)n1 , pIC50 read as 9.19

Notebook: O=C(Nc1cnccc1C1CCOCC1)c1ccnc(Nc2ccc(OC(F)F)nc2)n1 , pIC50 read as 9.19

Notebook: O=C(Nc1cnccc1-c1ccc(F)cc1)c1ccnc(Nc2ccc(OC(F)(F)F)cc2)n1 , pIC50 read as 8.89

Notebook: Nc1nccc(C(=O)Nc2cnccc2N2CCC(F)(F)CC2)n1 , pIC50 read as 7.74

Notebook: CS(=O)(=O)c1ccc(Nc2nccc(C(=O)Nc3cnccc3-c3ccccc3)n2)cc1 , pIC50 read as 9.72

Notebook: O=C(Nc1cnc(F)cc1N1CCOCC1)c1ccnc(Nc2ccc(Cl)c(F)c2)n1 , pIC50 read as 9.82

Notebook: O=C(Nc1cnccc1-c1ccccc1)c1ccnc(Nc2cnns2)n1 , pIC50 read as 7.38

Notebook: Cc1ccc(Nc2nccc(C(=O)Nc3cnccc3OCC(F)(F)F)n2)cc1 , pIC50 read as 10.10

Notebook: Cc1ccc(Nc2nccc(C(=O)Nc3cnccc3-c3ccccc3)n2)cc1 , pIC50 read as 9.66

Notebook: Cn1cc(Nc2nccc(C(=O)Nc3cnccc3-c3ccccc3)n2)nn1 , pIC50 read as 6.72

Notebook: O=C(Nc1cnccc1OCC(F)(F)F)c1ccnc(Nc2ccc(F)cc2F)n1 , pIC50 read as 8.40

Notebook: O=C(Nc1cnccc1OCC(F)(F)F)c1ccnc(NCC2CC2)n1 , pIC50 read as 9.55

Notebook: CCOc1ccc(Nc2nccc(C(=O)Nc3cnccc3OCC(F)(F)F)n2)cc1 , pIC50 read as 9.66

Notebook: O=C(Nc1cncnc1)c1ccnc(NCC2CC2c2ccc(F)cc2)n1 (centres unmarked) , pIC50 read as 7.55

Notebook: CC(C)(C)CNc1nccc(C(=O)Nc2cncnc2N2CCOCC2)n1 , pIC50 read as 7.96

Notebook: N#Cc1ccc(Nc2nccc(C(=O)Nc3cnccc3OCC(F)(F)F)n2)cc1 , pIC50 read as 10.15

Notebook: O=C(Nc1cnccc1-c1ccccc1)c1ccnc(Nc2ccc(OC(F)F)nc2)n1 , pIC50 read as 8.96

Notebook: COc1ccc(Nc2nccc(C(=O)Nc3cnccc3OCC(F)(F)F)n2)cc1 , pIC50 read as 10.22

Notebook: COc1cccc(C2CC2CNc2nccc(C(=O)Nc3cncnc3)n2)c1 (centres unmarked) , pIC50 read as 7.48

Notebook: O=C(Nc1cnccc1-c1ccccc1)c1ccnc(Nc2cccnc2)n1 , pIC50 read as 9.16

Notebook: O=C(Nc1cnccc1OCC(F)(F)F)c1ccnc(Nc2ccc(F)cc2)n1 , pIC50 read as 9.80

Notebook: O=C(Nc1cnccc1-c1ccc(F)cc1)c1ccnc(Nc2ccc(OC(F)F)cc2)n1 , pIC50 read as 9.54

Notebook: Cn1nc(C2CC2)cc1Nc1nccc(C(=O)Nc2cnccc2-c2ccccc2)n1 , pIC50 read as 7.52

Notebook: O=C(Nc1cnccc1OCC(F)(F)F)c1ccnc(Nc2ccc(Cl)cc2F)n1 , pIC50 read as 9.41

Notebook: CC(Nc1nccc(C(=O)Nc2cnccc2-c2ccc(F)cc2)n1)C(C)(C)C (centres unmarked) , pIC50 read as 9.14

Notebook: N#Cc1ccc(Nc2nccc(C(=O)Nc3cnccc3-c3ccccc3)n2)c(F)c1 , pIC50 read as 9.68

Notebook: O=C(Nc1cncnc1)c1ccnc(Nc2ccccc2)n1 , pIC50 read as 7.35

Notebook: O=C(Nc1cnccc1-c1ccccc1)c1ccnc(Nc2ccccn2)n1 , pIC50 read as 6.68

Notebook: Cc1cc(Nc2nccc(C(=O)Nc3cnccc3-c3ccccc3)n2)ccn1 , pIC50 read as 9.26

* * *

Molecular target: GSK3α (Homo sapiens, UniProt P49840)
Sequence (P49840 whole entry, species assumed): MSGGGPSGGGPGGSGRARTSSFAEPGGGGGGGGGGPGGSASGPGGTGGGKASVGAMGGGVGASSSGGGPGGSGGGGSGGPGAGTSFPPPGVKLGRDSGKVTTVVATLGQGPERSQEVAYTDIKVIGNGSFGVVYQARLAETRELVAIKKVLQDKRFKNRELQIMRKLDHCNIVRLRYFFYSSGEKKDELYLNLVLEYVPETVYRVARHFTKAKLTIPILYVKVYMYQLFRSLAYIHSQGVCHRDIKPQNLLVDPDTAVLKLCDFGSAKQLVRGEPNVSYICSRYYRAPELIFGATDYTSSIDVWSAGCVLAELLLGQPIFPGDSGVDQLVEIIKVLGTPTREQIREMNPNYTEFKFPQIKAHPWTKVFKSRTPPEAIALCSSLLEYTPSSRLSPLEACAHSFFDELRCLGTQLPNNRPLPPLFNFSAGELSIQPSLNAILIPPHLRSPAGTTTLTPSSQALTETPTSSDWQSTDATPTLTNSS
pIC50: −log10 of the molar value.
Cut-off 9 on pIC50, inclusive. At or above means true (1); below means false (0).

[in] # check: pIC50 of O=C(Nc1cnccc1OCC(F)(F)F)c1ccnc(Nc2ccc(C(F)(F)F)cc2)n1 is greater than or equal to 9
[out] true (1)

[in] # check: pIC50 of CC(C)OCCCNc1nccc(C(=O)Nc2cncnc2OCC(F)(F)F)n1 is greater than or equal to 9
[out] false (0)

[in] # check: pIC50 of COc1ccc(Nc2nccc(C(=O)Nc3cnccc3-c3ccccc3)n2)cc1 is greater than or equal to 9
[out] true (1)

[in] # check: pIC50 of CCCC1(c2cc(Cl)ncc2NC(=O)c2ccnc(NC3CCOCC3)n2)OCCO1 is greater than or equal to 9
[out] true (1)

[in] # check: pIC50 of O=C(Nc1cncnc1Nc1ccccc1)c1ccnc(Nc2ccccc2)n1 is greater than or equal to 9
[out] false (0)

[in] # check: pIC50 of O=C(Nc1cncnc1OCC(F)(F)F)c1ccnc(NCC2CCOCC2)n1 is greater than or equal to 9
[out] false (0)

[in] # check: pIC50 of COc1cc(Nc2nccc(C(=O)Nc3cnccc3-c3ccccc3)n2)ccn1 is greater than or equal to 9
[out] true (1)

[in] # check: pIC50 of CN(C)CCOc1ccc(Nc2nccc(C(=O)Nc3cnccc3-c3ccccc3)n2)cn1 is greater than or equal to 9
[out] false (0)

* * *

Give measured pIC50 for each item. Keep answers brief.
// field semantics: pIC50 = negative decimal log of concentration (mol/L)

Entry Cc1ccccc1-c1cccc(Nc2nccc(C(=O)Nc3cncnc3)n2)c1 : pIC50 on GSK3α (Homo sapiens, UniProt P49840) = 8.41

Entry O=C(Nc1cnccc1-c1ccccc1)c1ccnc(NC2CCCCC2)n1 : pIC50 on GSK3α (Homo sapiens, UniProt P49840) = 8.89

Entry CN1CCC(Nc2nccc(C(=O)Nc3cnccc3OCC(F)(F)F)n2)CC1 : pIC50 on GSK3α (Homo sapiens, UniProt P49840) = 7.92

Entry O=C(Nc1cnccc1OCC(F)(F)F)c1ccnc(NCc2ccccc2)n1 : pIC50 on GSK3α (Homo sapiens, UniProt P49840) = 8.89
